All figures here come from patent US20230183352A1.

- EXPERIMENTAL_TARGET: T1, Claudin 18.2 (CLDN18.2), expressed on CHOS-CLDN 18.2 / HEK293-CLDN 18.2 / HCC827-CLDN 18.2 cells (human, UniProt P56856-2 1-261)
- T1 construct: whole, on cells; The species is not repeated for the CHOS-CLDN 18.2 cells; also called claudin-18A2
- PROCEDURE_DETAILS: FACS, CHOS-CLDN18.2 cells, 10 µg/ml
MEASURED_ENDPOINT: MFI
Write no unit; give the number alone.

Here's what some known entries look like.
- BINDER: "QP14491448 (antibody, human IgG1, kappa, V domains shown, Humanized from QP199200) VH: EVQLVESGGGLVQPGGSLRLSCAASGFTFSSFGMHWVRQAPGKGLEWVSYISSGSNSIYYVDTVKGRFTISRDNAKNSLYLQMNSLRDEDTAVYYCARNAYYGNSFDYWGQGTLVTVSS VL: DIVMTQSPDSLAVSLGERATISCKSSQSLLNSGNQKNYLTWYQQKPGQPPKLLIYWASTRESGVPDRFTGSGSGTVFTLTISSLQAEDVAVYFCQNNYYYPLTFGGGTKVEIKR"
  MEASURED_ENDPOINT: "MFI"
  REPORTED: 484000
- BINDER: "QP14501446 (antibody, human IgG1, kappa, V domains shown, Humanized from QP199200) VH: EVQLVESGGGLVQPGGSLRLSCAASGFTFSSFGMHWVRQAPGKGLEWVAYISSGSNSIYYVDTVKGRFTISRDNAKNSLYLQMNSLRDEDTAVYYCARNAYYGNSFDYWGQGTLVTVSS VL: DIVMTQSPDSLAVSLGERATINCKSSQSLLNSGNQKNYLTWYQQKPGQPPKLLIYWASTRESGVPDRFSGSGSGTDFTLTISSLQAEDVAVYYCQNNYYYPLTFGGGTKVEIKR"
  MEASURED_ENDPOINT: "MFI"
  REPORTED: 505000
- BINDER: "QP14561454 (antibody, human IgG1, kappa, V domains shown, Humanized from QP201202) VH: QVQLVQSGAEVKKPGASVKVSCKASGYTFTNYFVHWVRQAPGQGLEWMGYINPYNDDTKYNEKFKGRVTMTRDTSTSTVYMELSSLRSEDTAVYYCLSLRFFAYWGQGTLVTVSS VL: DIVMTQSPDSLAVSLGERATISCKSSQSLLNSGNQKNYLTWYQQKPGQAPKLLIYWASTRESGVPDRFSGSGSGTDFTLTISSVQAEDVAVYFCQNDYSYPLTFGGGTKVEIKR"
  MEASURED_ENDPOINT: "MFI"
  REPORTED: 477000

Given QP14361435 (antibody, human IgG1, kappa, V domains shown, Humanized from QP190191) VH: EVQLVESGGGLVKPGGSLRLSCAASGFTFSNYAMSWVRQAPGKGLEWVSSIISGGRTYYLDSEKGRFTISRDNAKNSLYLQMNSLRAEDTAVYYCTRIYYGNSFDYWGQGTLVTVSS VL: DIVMTQSPDSLAVSLGERATISCKSSQSLLNSGNQKNYLTWYQQKPGQPPKLLIYWASTRESGVPDRFTGSGSGTDFTLTISSLQAEDVAVYYCQNDYSYPFTFGQGTKLEIKR , respond with its MFI. 504000

Identify MFI associated with the binder QP207208 (antibody, human IgG1, V domains shown, Chimeric; also called 51A3; mouse-derived chimeric antibody QP207208) VH: EVQLQQSGPELVKPGASVKMSCKASGYTFTSYIMHWVKQKPGQGLEWIGYINPYNDGTKYNEKFKGKATLTSDKSSSTVYMELSSLTSEDSAVYCCARLGFTTRNAMDYWGQGTSVTVSS VL: DIVMTQSPSSLSVSAGEKVTMNCKSSQSLLNSGNQKNYLAWYQQKPGQPPKLLIYGASTRESGVPDRFTGSGSGTDFTLTISSVQAEDLAVYYCQNDHSYPFTFGSGTKLEIK 627000

Please report the measured MFI for QP14581453 (antibody, human IgG1, kappa, V domains shown, Humanized from QP201202) VH: QVQLVQSGAEVKKPGASVKVSCKASGYTFTNYFVHWVKQAPGQGLEWIGYINPYNDDTKYNEKFKGKATLTRDTSTSTVYMELSSLRSEDTAVYYCLSLRFFAYWGQGTLVTVSS VL: DIVMTQSPDSLAVSLGERATISCKSSQSLLNSGNQKNYLTWYQQKPGQAPKLLIYWASTRESGVPDRFSGSGSGTDFTLTISSLQAEDVAVYYCQNDYSYPLTFGGGTKVEIKR 554000

Return the recorded MFI value; entry: QP199200 (antibody, human IgG1, V domains shown, Chimeric; also called 43C11; mouse-derived chimeric antibody QP199200) VH: DVQLVESGGGLVQPGGSRKLSCAASGFTFSSFGMHWVRQAPEKGLEWVAYISSGSNSIYYVDTVKGRFTISRDNPKNTLFLQMTSLKSEDTAMYYCARNAYYGNSFDYWGQGTTLTVSS VL: DIVMTQSPSSLTVTAGEKVTMSCKSSQSLLNSGNQKNYLTWYQQKPGQPPKLLIYWASTRESGVPDRFTGSGSGTVFTLTISSVQAEDLAVYFCQNNYYYPLTFGAGTKLELK 514000

Give the value of MFI reported for the following: QP14641462 (antibody, human IgG1, kappa, V domains shown, Humanized from QP207208) VH: EVQLVQSGAEVKKPGASVKVSCKASGYTFTSYIMHWVRQAPGQGLEWIGYINPYNDGTKYNEKFKGRVTLTRDKSTSTVYMELSSLRSEDTAVYYCARLGFTTRNAMDYWGQGTLVTVSS VL: DIVMTQSPDSLAVSLGERATINCKSSQSLLNSGNQKNYLAWYQQKPGQPPKLLIYGASTRESGVPDRFTGSGSGTDFTLTISSVQAEDVAVYYCQNDHSYPFTFGQGTKLEIKR 758000

In one line, give reported MFI of the entry QP14651460 (antibody, human IgG1, kappa, V domains shown, Humanized from QP207208) VH: EVQLVQSGAEVKKPGASVKVSCKASGYTFTSYIMHWVRQAPGQGLEWIGYINPYNDGTKYNEKFKGRVTLTSDKSTSTVYMELSSLRSEDTAVYYCARLGFTTRNAMDYWGQGTLVTVSS VL: DIVMTQSPDSLAVSLGERATINCKSSQSLLNSGNQKNYLAWYQQKPGQPPKLLIYGASTRESGVPDRFSGSGSGTDFTLTISSLQAEDVAVYYCQNDHSYPFTFGQGTKLEIKR . 595000

Give the measured MFI for QP14501448 (antibody, human IgG1, kappa, V domains shown, Humanized from QP199200) VH: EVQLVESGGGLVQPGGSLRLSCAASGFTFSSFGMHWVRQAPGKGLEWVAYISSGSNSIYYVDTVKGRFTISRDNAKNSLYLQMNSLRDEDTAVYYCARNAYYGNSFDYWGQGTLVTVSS VL: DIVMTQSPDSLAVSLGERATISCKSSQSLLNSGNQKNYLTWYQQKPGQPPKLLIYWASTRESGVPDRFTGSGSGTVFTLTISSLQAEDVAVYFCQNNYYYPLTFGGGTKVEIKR 540000
